Biological target: CDK4 (Homo sapiens, UniProt P11802+Q16531)
Sequence (P11802 2-303 limits assumed): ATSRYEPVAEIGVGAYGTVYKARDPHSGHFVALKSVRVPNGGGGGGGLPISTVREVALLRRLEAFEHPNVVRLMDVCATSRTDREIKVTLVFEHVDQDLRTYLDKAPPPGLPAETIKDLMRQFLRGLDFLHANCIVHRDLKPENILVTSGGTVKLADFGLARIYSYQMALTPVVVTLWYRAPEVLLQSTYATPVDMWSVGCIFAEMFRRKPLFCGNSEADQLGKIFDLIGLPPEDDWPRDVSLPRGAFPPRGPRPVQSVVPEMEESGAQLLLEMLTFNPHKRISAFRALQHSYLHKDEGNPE
Sequence (P24385 whole entry partner): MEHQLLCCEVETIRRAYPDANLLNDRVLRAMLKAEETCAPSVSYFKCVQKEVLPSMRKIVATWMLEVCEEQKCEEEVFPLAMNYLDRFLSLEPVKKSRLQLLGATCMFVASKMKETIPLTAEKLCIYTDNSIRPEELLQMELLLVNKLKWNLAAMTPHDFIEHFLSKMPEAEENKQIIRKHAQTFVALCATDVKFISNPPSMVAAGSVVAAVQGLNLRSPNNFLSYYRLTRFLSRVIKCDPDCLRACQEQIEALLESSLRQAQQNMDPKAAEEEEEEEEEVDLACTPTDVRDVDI
Sequence (Q16531 2-1140 limits assumed): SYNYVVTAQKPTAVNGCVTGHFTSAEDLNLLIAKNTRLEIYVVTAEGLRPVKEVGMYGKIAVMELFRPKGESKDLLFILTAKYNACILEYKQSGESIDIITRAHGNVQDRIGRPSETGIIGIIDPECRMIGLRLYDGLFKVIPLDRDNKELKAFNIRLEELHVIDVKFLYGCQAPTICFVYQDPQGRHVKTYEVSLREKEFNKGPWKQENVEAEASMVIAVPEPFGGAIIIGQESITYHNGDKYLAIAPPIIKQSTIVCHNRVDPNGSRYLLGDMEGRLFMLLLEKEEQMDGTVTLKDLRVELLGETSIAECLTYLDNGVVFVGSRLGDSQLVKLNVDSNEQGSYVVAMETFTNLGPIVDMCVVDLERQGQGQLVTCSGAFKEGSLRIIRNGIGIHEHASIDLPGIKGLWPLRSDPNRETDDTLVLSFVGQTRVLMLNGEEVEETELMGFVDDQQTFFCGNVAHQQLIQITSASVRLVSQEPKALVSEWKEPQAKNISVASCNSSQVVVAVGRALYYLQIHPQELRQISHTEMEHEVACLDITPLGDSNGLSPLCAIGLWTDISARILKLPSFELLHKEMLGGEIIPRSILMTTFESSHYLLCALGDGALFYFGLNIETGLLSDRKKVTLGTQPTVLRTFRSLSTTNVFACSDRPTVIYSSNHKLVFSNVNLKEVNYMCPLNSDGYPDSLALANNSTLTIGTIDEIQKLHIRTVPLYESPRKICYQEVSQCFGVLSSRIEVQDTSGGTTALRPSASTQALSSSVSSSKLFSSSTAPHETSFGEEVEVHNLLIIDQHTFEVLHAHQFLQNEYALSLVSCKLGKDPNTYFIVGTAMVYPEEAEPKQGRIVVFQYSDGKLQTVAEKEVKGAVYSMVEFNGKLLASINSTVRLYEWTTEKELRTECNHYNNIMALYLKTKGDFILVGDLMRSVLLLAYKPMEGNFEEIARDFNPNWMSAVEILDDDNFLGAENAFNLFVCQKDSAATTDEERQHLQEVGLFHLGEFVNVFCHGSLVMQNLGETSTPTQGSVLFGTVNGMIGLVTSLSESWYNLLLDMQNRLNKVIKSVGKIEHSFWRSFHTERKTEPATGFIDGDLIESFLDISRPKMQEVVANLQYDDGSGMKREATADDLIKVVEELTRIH
Test: CDK4 percentage degradation in Calu-1 cells (Table 6)
Assay type: cell-based
Set-up: Cells that express cyclin D1-3 and CDK4/6 proteins were treated with heterobifunctional compounds; endogenous in cells; host or cells: Calu-1
Conditions: 200 nM, 16 hours
Experimental: Calu-(cells were treated with heterobifunctional compounds at 40 nM or 200 nM for 16 hours A: protein percentage degradation […]; B: protein percentage degradation <80%, and ≥50%; C: protein percentage degradation <50%, and ≥30%; D; protein percentage degradation […]; -, data not available. Calu-1, T47D, MCF7, HCC1428 and other cells were cultured at 37° C. with 5% CO2 in RPMI 1640 or DMEM medium supplemented with 10% fetal bovine serum. […]

compound	inhibition at 0.2 µM
CNc1ccc(C(=O)Nc2ccc(N(C)C)nn2)c(NC2CC(NC(=O)CN3CCN(c4ccc(Nc5ncc6c(C)c(C(C)=O)c(=O)n(C7CCCC7)c6n5)nc4)CC3)C2)n1 (centres unmarked)	50 to 80%
CNc1ccc(C(=O)Nc2ccc(C)c(C(C)C)n2)c(NCCCCCNC(=O)CN2CCN(c3ccc(Nc4ncc5c(C)c(C(C)=O)c(=O)n(C6CCCC6)c5n4)nc3)CC2)n1	50 to 80%
CNc1ccc(C(=O)Nc2ccc(N(C)C)nn2)c(NC2CC(Cn3cc(CN4CCN(c5ccc(Nc6ncc7c(C)c(C(C)=O)c(=O)n(C8CCCC8)c7n6)nc5)CC4)nn3)C2)n1 (centres unmarked)	50 to 80%
CNc1ccc(C(=O)Nc2ccc(N)nn2)c(NCCCCCNC(=O)CN2CCN(c3ccc(Nc4ncc5c(C)c(C(C)=O)c(=O)n(C6CCCC6)c5n4)nc3)CC2)n1	< 30%
CNc1ccc(C(=O)Nc2ccc(N(C)C)nn2)c(NC2CC(CCCC(=O)N3CCN(c4ccc(Nc5ncc6c(C)c(C(C)=O)c(=O)n(C7CCCC7)c6n5)nc4)CC3)C2)n1 (centres unmarked)	50 to 80%
CNc1cccc(NC(=O)c2ccc(NC)nc2NC2CC3(CC(NC(=O)CN4CCN(c5ccc(Nc6ncc7c(C)c(C(C)=O)c(=O)n(C8CCCC8)c7n6)nc5)CC4)C3)C2)n1 (centres unmarked)	50 to 80%
CC(=O)c1c(C)c2cnc(Nc3ccc(N4CCN(CC(=O)NCCCCCNc5nc(C)ccc5C(=O)Nc5nc(C)c(C)s5)CC4)cn3)nc2n(C2CCCC2)c1=O	50 to 80%
CNc1ccc(C(=O)Nc2ccc(N(C)C)nn2)c(NCCCCCCCNC(=O)CN2CCN(c3ccc(Nc4ncc5c(C)c(C(C)=O)c(=O)n(C6CCCC6)c5n4)nc3)CC2)n1	> 80%
CNc1ccc(C(=O)Nc2cccc(C(F)F)n2)c(NC2CC3(CC(NC(=O)CN4CCN(c5ccc(Nc6ncc7c(C)c(C(C)=O)c(=O)n(C8CCCC8)c7n6)nc5)CC4)C3)C2)n1 (centres unmarked)	50 to 80%
CNc1ccc(C(=O)Nc2cccc(C)n2)c(NC2CC3(CC(NC(=O)CN4CCN(c5ccc(Nc6ncc7c(C)c(C(C)=O)c(=O)n(C8CCCC8)c7n6)nc5)CC4)C3)C2)n1 (centres unmarked)	50 to 80%
CC(=O)c1c(C)c2cnc(Nc3ccc(N4CCN(CC(=O)NCCCNc5nc(C)ccc5C(=O)Nc5nc(C)c(C)s5)CC4)cn3)nc2n(C2CCCC2)c1=O	30 to 50%

* * *

Molecular target: CDK4 (Homo sapiens, UniProt P11802+Q16531)
Assay: CDK4 percentage degradation in Calu-1 cells (Table 6)
Type: cell-based
Parameters: Cells that express cyclin D1-3 and CDK4/6 proteins were treated with heterobifunctional compounds; endogenous in cells; host or cells: Calu-1
Settings: 40 nM, 16 hours
Description: Calu-(cells were treated with heterobifunctional compounds at 40 nM or 200 nM for 16 hours A: protein percentage degradation […]; B: protein percentage degradation <80%, and ≥50%; C: protein percentage degradation <50%, and ≥30%; D; protein percentage degradation […]; -, data not available. Calu-1, T47D, MCF7, HCC1428 and other cells were cultured at 37° C. with 5% CO2 in RPMI 1640 or DMEM medium supplemented with 10% fetal bovine serum. […]
inhibition at 0.04 µM: recorded values
quantity name: inhibition at 0.04 µM

molecule	measured value
CC(=O)c1c(C)c2cnc(Nc3ccc(N4CCN(CC(=O)NC5CC6(C5)CC(Nc5nc(NC(C)C)ccc5C(=O)Nc5cn(C)c(C7CC7)n5)C6)CC4)cn3)nc2n(C2CCCC2)c1=O (centres unmarked)	50 to 80%
CNc1ccc(C(=O)Nc2ccc(N(C)C)nn2)c(Nc2cnn(CCNC(=O)CN3CCN(c4ccc(Nc5ncc6c(C)c(C(C)=O)c(=O)n(C7CCCC7)c6n5)nc4)CC3)c2)n1	50 to 80%
CC(=O)c1c(C)c2cnc(Nc3ccc(N4CCN(CC(=O)NCCC5CC(Nc6cc(Cl)ccc6C(=O)Nc6ccc(N(C)C)nn6)C5)CC4)cn3)nc2n(C2CCCC2)c1=O (centres unmarked)	< 30%
CC(=O)c1c(C)c2cnc(Nc3ccc(N4CCN(CC(=O)NCCCCCCCNc5nc(C)ccc5C(=O)Nc5ccc(C)c(C6CC6)n5)CC4)cn3)nc2n(C2CCCC2)c1=O	50 to 80%
CNc1ccc(C(=O)Nc2cccc(C3CC3)n2)c(NC[C@H]2CC[C@H](NC(=O)CN3CCN(c4ccc(Nc5ncc6c(C)c(C(C)=O)c(=O)n(C7CCCC7)c6n5)nc4)CC3)CC2)n1	< 30%
CC(=O)c1c(C)c2cnc(Nc3ccc(N4CCN(CC(=O)NCCCCCCCNc5nc(C)ccc5C(=O)Nc5ccc(N(C)C)nn5)CC4)cn3)nc2n(C2CCCC2)c1=O	50 to 80%
CC(=O)c1c(C)c2cnc(Nc3ccc(N4CCC(N(C)CC(=O)N5CCC(Nc6nc(NC(C)C)ccc6C(=O)Nc6ccc(N(C)C)nn6)CC5)CC4)cn3)nc2n(C2CCCC2)c1=O	< 30%
CCc1ccc(C(=O)Nc2cc(C)n(C)n2)c(NC2CC(CNC(=O)CN3CCN(c4ccc(Nc5ncc6c(C)c(C(C)=O)c(=O)n(C7CCCC7)c6n5)nc4)CC3)C2)n1 (centres unmarked)	30 to 50%
CNc1ccc(C(=O)Nc2cc(C)[nH]n2)c(NC2CC3(CC(NC(=O)CN4CCN(c5ccc(Nc6ncc7c(C)c(C(C)=O)c(=O)n(C8CCCC8)c7n6)nc5)CC4)C3)C2)n1 (centres unmarked)	< 30%
CC(=O)c1c(C)c2cnc(Nc3ccc(N4CCN(CC(=O)NC5CC6(C5)CC(Nc5nc(NC(C)C)ccc5C(=O)Nc5cccc(C)n5)C6)CC4)cn3)nc2n(C2CCCC2)c1=O (centres unmarked)	50 to 80%
[2H]C([2H])([2H])Nc1ccc(C(=O)Nc2cc(C)n(C)n2)c(NC2CCN(C(=O)CN3CCN(c4ccc(Nc5ncc6c(C)c(C(C)=O)c(=O)n(C7CCCC7)c6n5)nc4)CC3)CC2)n1	< 30%

* * *

Target: CDK4 (Homo sapiens, UniProt P11802+Q16531)
Assay: CDK4 percentage degradation in Calu-1 cells (Table 6)
Format: cell-based
Set-up: Cells that express cyclin D1-3 and CDK4/6 proteins were treated with heterobifunctional compounds; endogenous in cells; host or cells: Calu-1
Details: 200 nM, 16 hours
Description: Calu-(cells were treated with heterobifunctional compounds at 40 nM or 200 nM for 16 hours A: protein percentage degradation […]; B: protein percentage degradation <80%, and ≥50%; C: protein percentage degradation <50%, and ≥30%; D; protein percentage degradation […]; -, data not available. Calu-1, T47D, MCF7, HCC1428 and other cells were cultured at 37° C. with 5% CO2 in RPMI 1640 or DMEM medium supplemented with 10% fetal bovine serum. […]

compound	inhibition at 0.2 µM
CC(=O)c1c(C)c2cnc(Nc3ccc(N4CCN(CC(=O)NC5CC6(C5)CC(Nc5nc(NC(C)C)ccc5C(=O)Nc5cn(C)c(C7CC7)n5)C6)CC4)cn3)nc2n(C2CCCC2)c1=O (stereo not drawn)	50 to 80%
CNc1ccc(C(=O)Nc2cn(C)c(C3CC3)n2)c(NC2CC(NC(=O)CN3CCN(c4ccc(Nc5ncc6c(C)c(C(C)=O)c(=O)n(C7CCCC7)c6n5)nc4)CC3)C2)n1 (stereo not drawn)	50 to 80%
CNc1ccc(C(=O)Nc2ccc(N(C)C)nn2)c(NC[C@H]2CC[C@H](CCC(=O)N3CCN(c4ccc(Nc5ncc6c(C)c(C(C)=O)c(=O)n(C7CCCC7)c6n5)nc4)CC3)CC2)n1	50 to 80%
CC(=O)c1c(C)c2cnc(Nc3ccc(N4CCN(C5CCN(C(=O)[C@H]6CC[C@H](Nc7nc(NC(C)C)ccc7C(=O)Nc7ccc(N(C)C)nn7)CC6)C5)CC4)cn3)nc2n(C2CCCC2)c1=O (stereo partly drawn)	< 30%
CNc1ccc(C(=O)Nc2nc(C)c(C)o2)c(NC2CC3(CC(NC(=O)CN4CCN(c5ccc(Nc6ncc7c(C)c(C(C)=O)c(=O)n(C8CCCC8)c7n6)nc5)CC4)C3)C2)n1 (stereo not drawn)	50 to 80%
CNc1ccc(C(=O)Nc2ccc(C)c(C3CC3)n2)c(NC2CC3(CC(NC(=O)CN4CCN(c5ccc(Nc6ncc7c(C)c(C(C)=O)c(=O)n(C8CCCC8)c7n6)nc5)CC4)C3)C2)n1 (stereo not drawn)	> 80%
CNc1ccc(C(=O)Nc2ccc(N(C)C)nn2)c(NC2CC3(C2)CN(C(=O)CC(C)N2CCN(c4ccc(Nc5ncc6c(C)c(C(C)=O)c(=O)n(C7CCCC7)c6n5)nc4)CC2)C3)n1 (stereo not drawn)	30 to 50%
CNc1ccc(C(=O)Nc2ccc(N(C)C)nn2)c(NC2CC(CNC(=O)C(C)(C)N3CCN(c4ccc(Nc5ncc6c(C)c(C(C)=O)c(=O)n(C7CCCC7)c6n5)nc4)CC3)C2)n1 (stereo not drawn)	> 80%
CNc1ccc(C(=O)Nc2cccc(C3CC3)n2)c(NC2CC3(C2)CN(C(=O)C(C)(C)N2CCN(c4ccc(Nc5ncc6c(C)c(C(C)=O)c(=O)n(C7CCCC7)c6n5)nc4)CC2)C3)n1	50 to 80%
CNc1ccc(C(=O)Nc2ccc(C)c(C)n2)c(NCCCCCNC(=O)CN2CCN(c3ccc(Nc4ncc5c(C)c(C(C)=O)c(=O)n(C6CCCC6)c5n4)nc3)CC2)n1	50 to 80%
CC(=O)c1c(C)c2cnc(Nc3ccc(N4CCN(CC(=O)NCCCCCNc5nc(NC(C)(C)C)ccc5C(=O)Nc5ccc(N(C)C)nn5)CC4)cn3)nc2n(C2CCCC2)c1=O	50 to 80%
CNc1ccc(C(=O)Nc2ccc3c(n2)CCC3)c(NC2CC3(CC(NC(=O)CN4CCN(c5ccc(Nc6ncc7c(C)c(C(C)=O)c(=O)n(C8CCCC8)c7n6)nc5)CC4)C3)C2)n1 (stereo not drawn)	50 to 80%
CNc1ccc(C(=O)Nc2ccc(N(C)C)nn2)c(NC2CCC(NC(=O)CN3CCN(c4ccc(Nc5ncc6c(C)c(C(C)=O)c(=O)n(C7CCCC7)c6n5)nc4)CC3)C2)n1 (stereo not drawn)	50 to 80%
CNc1ccc(C(=O)Nc2ccc(OC)nn2)c(NCCCCCCCNC(=O)CN2CCN(c3ccc(Nc4ncc5c(C)c(C(C)=O)c(=O)n(C6CCCC6)c5n4)nc3)CC2)n1	> 80%
CNc1ccc(C(=O)NC2CC(N(C)C)C2)c(NCCCCCNC(=O)CN2CCN(c3ccc(Nc4ncc5c(C)c(C(C)=O)c(=O)n(C6CCCC6)c5n4)nc3)CC2)n1 (stereo not drawn)	< 30%
CNc1ccc(C(=O)Nc2ccc(N(C)C)nn2)c(NC[C@H]2CC[C@@H](NC(=O)CN3CCN(c4ccc(Nc5ncc6c(C)c(C(C)=O)c(=O)n(C7CCCC7)c6n5)nc4)CC3)CC2)n1	50 to 80%
CC(=O)c1c(C)c2cnc(Nc3ccc(N4CCN(CC(=O)NCCCCCNc5nc(C(C)C)ccc5C(=O)Nc5ccc(N(C)C)nn5)CC4)cn3)nc2n(C2CCCC2)c1=O	> 80%
CNc1ccc(C(=O)Nc2ccc3ncn(C)c3n2)c(NCCCCCNC(=O)CN2CCN(c3ccc(Nc4ncc5c(C)c(C(C)=O)c(=O)n(C6CCCC6)c5n4)nc3)CC2)n1	> 80%
CNc1ccc(C(=O)N(C)c2ccc(N(C)C)nn2)c(NCCCCCNC(=O)CN2CCN(c3ccc(Nc4ncc5c(C)c(C(C)=O)c(=O)n(C6CCCC6)c5n4)nc3)CC2)n1	< 30%
CNc1ccc(C(=O)Nc2ncc(C)o2)c(NC2CC3(CC(NC(=O)CN4CCN(c5ccc(Nc6ncc7c(C)c(C(C)=O)c(=O)n(C8CCCC8)c7n6)nc5)CC4)C3)C2)n1 (stereo not drawn)	50 to 80%
CC(=O)c1c(C)c2cnc(Nc3ccc(N4CCN(CC(=O)NCC5CC(Nc6nc(C)ccc6C(=O)Nc6cc(C)n(C)n6)C5)CC4)cn3)nc2n(C2CCCC2)c1=O (stereo not drawn)	50 to 80%

Data credit: patent US20260297081A1
